TARGET_OR_SYSTEM: T1, GFP-9S library array, motif 4 ND N98Y;D124S (synthetic construct, N98Y;D124S)
T1 chain: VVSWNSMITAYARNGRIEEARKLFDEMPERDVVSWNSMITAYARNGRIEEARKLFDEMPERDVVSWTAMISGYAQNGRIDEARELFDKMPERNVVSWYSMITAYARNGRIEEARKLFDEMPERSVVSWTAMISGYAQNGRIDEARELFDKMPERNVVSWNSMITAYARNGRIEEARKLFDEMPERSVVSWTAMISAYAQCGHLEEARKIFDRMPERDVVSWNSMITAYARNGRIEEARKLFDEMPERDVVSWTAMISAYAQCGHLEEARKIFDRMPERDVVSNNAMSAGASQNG
TEST_DESCRIPTION: high-throughput RNA pulldown from lysate on Ni-NTA beads; HRP: 50 mM Tris pH 8, 150 mM NaCl, 1 mM beta-mercaptoethanol, 50 ug/ml BSA, 3 ug/ml yeast RNA, 0.5% heparin; ITC and FP: Tris pH 8, 200 mM KCl, 5% glycerol; MST: 50 mM Tris pH 8, 200 mM NaCl, 1 mM DTT, BSA, heparin, 0.05% Tween 20
CONDITION: tags: N-terminal His-eGFP; label: 5' IRDye 800CW
Kd reference
Answer in nM, number only, no unit symbol.

1. AUUAUACGUGA (ssRNA) [IR-rpoA-U] :: 134

Please find the next binder below.
Kd in this record for AUUAAACGUGA (ssRNA) [IR-rpoA-A] : 911

Cited source: paper PMC8809517
